# TEST SYSTEM: PRMT5/MEP50 complex (Homo sapiens (Human), UniProt O14744)
# Sequence (O14744 whole entry): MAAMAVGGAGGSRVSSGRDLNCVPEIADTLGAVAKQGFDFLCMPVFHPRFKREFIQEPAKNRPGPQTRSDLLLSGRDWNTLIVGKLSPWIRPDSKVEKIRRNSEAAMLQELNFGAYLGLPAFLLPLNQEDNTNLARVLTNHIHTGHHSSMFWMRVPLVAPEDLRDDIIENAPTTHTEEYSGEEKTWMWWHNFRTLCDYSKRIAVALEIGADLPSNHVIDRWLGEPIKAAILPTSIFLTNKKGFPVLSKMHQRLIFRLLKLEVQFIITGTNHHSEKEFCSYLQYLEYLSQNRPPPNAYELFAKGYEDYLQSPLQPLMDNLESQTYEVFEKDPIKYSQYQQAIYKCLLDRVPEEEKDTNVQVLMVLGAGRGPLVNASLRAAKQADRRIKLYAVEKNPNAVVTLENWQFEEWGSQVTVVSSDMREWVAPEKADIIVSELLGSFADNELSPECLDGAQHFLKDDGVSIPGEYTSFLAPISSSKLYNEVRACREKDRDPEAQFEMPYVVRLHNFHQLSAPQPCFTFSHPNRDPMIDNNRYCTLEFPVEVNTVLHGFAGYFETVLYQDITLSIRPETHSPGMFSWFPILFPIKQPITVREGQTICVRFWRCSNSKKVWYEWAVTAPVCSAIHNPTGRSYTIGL
# Sequence (Q9BQA1 whole entry partner): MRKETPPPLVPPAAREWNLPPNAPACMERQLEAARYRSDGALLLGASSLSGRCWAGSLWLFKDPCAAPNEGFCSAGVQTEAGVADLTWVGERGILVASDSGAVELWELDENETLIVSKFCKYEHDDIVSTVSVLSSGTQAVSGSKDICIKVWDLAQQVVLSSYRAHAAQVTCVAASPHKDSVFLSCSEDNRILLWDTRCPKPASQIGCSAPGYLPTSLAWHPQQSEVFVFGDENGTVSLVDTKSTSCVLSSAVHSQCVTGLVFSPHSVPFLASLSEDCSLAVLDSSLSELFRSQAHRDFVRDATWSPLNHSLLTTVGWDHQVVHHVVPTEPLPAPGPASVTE
# PROTOCOL NOTES: PRMT5:MEP50 FlashPlate Assay
# Format: biochemical
# DETAILS: histone H4 peptide, absence of MTA, read-out: IC50
MEASUREMENT TYPE: pIC50
pIC50 field: float, defined as -log10 of concentration (mol/L).

Nc1nc2cc(NC(=O)c3ccccc3F)[nH]c2cc1Br :: 4.00

compound "Nc1ccc2[nH]c(NC(=O)c3ccccc3)cc2n1" , pIC50 observed: 4.02

====

Measured IC50, listed per entry.
# TEST SYSTEM: recombinant human dual expressed Avi PRMT5/His-MEP50 protein (Homo sapiens (Human), UniProt O14744)
# Sequence (O14744 2-637): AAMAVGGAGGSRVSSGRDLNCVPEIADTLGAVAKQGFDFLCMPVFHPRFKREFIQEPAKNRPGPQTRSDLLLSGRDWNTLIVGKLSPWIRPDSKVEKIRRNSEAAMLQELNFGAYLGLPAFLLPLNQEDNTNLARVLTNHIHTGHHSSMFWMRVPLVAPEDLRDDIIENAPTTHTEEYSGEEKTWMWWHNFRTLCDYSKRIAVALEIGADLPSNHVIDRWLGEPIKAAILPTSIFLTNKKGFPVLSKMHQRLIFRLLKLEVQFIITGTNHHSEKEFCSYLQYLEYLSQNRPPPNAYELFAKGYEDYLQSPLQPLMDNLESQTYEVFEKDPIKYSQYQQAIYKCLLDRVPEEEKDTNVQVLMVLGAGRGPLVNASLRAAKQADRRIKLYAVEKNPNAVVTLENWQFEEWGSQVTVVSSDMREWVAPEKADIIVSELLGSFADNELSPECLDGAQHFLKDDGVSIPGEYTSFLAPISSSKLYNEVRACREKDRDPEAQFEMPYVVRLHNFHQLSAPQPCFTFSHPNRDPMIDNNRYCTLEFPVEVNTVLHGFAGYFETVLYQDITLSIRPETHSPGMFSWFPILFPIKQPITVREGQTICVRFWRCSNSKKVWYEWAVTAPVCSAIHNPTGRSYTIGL
# Sequence (Q9BQA1 2-342 partner): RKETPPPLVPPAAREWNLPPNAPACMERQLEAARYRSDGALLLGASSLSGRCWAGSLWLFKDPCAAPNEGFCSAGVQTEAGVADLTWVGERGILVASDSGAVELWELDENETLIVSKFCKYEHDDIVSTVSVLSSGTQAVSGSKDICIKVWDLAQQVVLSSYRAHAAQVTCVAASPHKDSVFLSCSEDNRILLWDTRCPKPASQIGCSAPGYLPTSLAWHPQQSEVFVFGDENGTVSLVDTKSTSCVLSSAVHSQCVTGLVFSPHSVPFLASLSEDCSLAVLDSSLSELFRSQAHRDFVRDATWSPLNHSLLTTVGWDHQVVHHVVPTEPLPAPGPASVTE
# PROTOCOL NOTES: HTRF binding assay in presence of MTA
# DETAILS: 30 μM MTA
Please state the figure in µM; there is no need to write the unit.

Cc1cc(N)nc2cc(Oc3ccccn3)cnc12 [Example 3-6] :: 40.6
Cc1cc2[nH]c(NC(=O)c3ccccc3)cc2nc1N [Example 12-2] :: 5.46
Cc1cc2[nH]c(N3CC(=O)N(C)C3=O)cc2nc1N [Example 13-4] :: 50.6
CC(=O)NCc1cc2nc(N)c(C)cc2[nH]1 [Example 14-3] :: 0.102

Query Cc1cc2[nH]c(CNC(=O)c3ccccc3)c(C#N)c2nc1N [Example 15-6] yields IC50 of 2.64

# compound Cc1cc(N)nc2cc(CNC(=O)c3ccncn3)cnc12 [Example 7-2] ; its IC50 = 0.313

The measured IC50 associated with Cc1cc(N)nc2cc(-c3cnn(C)c3)cnc12 [Example 1-7] reads 7.92

IC50 reported for this compound Cc1ccccc1Cc1cnc2c(C)cc(N)nc2c1 [Example 2-5] : 8.83

IC50 for Nc1nc2cc(CNC(=O)c3ccncn3)[nH]c2cc1Br [Example 8-2] is 0.013

Looking up Cc1cc(N)nc2cc(Cc3cccnc3)cnc12 [Example 2-7] , I found its IC50 recorded as 0.581

====

Reported values of pIC50 for individual entries
# TEST SYSTEM: PRMT5/MEP50 complex (Homo sapiens (Human))
# PROTOCOL NOTES: PRMT5:MEP50 FlashPlate Assay
# Assay type: biochemical
# DETAILS: read-out: IC50 + 2 μM MTA, histone H4 peptide, presence of 2 μM MTA
pIC50 is defined as minus the log10 of a concentration measured in mol/L.

Below, each entry is followed by its recorded pIC50 result.
Nc1nc2cc[nH]c2cc1C(F)(F)F :: 3.68
Cc1cc2[nH]c(Cn3ccc4ccccc4c3=O)cc2nc1N :: 6.32
Cc1cc2[nH]c(C(C#N)N3C(=O)c4ccccc4C3=O)cc2nc1N (centres unmarked) :: 5.37
Nc1nc2cc(NC(=O)c3ccccc3F)[nH]c2cc1Br :: 4.31
Nc1ccc2c(n1)CN(c1cncc(Oc3ccccc3)c1)CC2 :: 5.24

Record summary for "Cc1cc2[nH]c(CNC(=O)c3ccccc3)c(C#N)c2nc1N" : reported pIC50 = 4.12

// sample "Cc1cc2[nH]c(CN3CCc4ccccc4C3=O)cc2nc1N" , its pIC50 was 6.30

Measured pIC50, "CC(=O)N(C)Cc1cc2nc(N)c(C)cc2[nH]1" : 5.91

Noted for "Cc1cc(N)nc2cc(CN3C(=O)c4ccccc4C3=O)cnc12" : its pIC50 reads 6.13

Sure, the documented pIC50 for "Cc1cc(N)nc2cc(CNC(=O)c3cc(NC4CC4)ncn3)cnc12" is 5.78

The recorded pIC50 for Cc1cc(N)nc2cc(CNC(=O)c3ccccc3)cnc12 [Example 7-1] is 5.25

// pIC50 value for "Cc1cc2sc(CNC(=O)c3ccccc3)cc2nc1N" : 4.74

"Cc1cc2c(cc(CNC(=O)c3ccccc3)n2C2CC2)nc1N" has a reported pIC50 of 4.35

So, "CC(=O)NCc1cc2nc(N)c(C)cc2[nH]1" ? Its pIC50 was 6.86

The reported value for "CC(=O)N(Cc1cc2nc(N)c(C)cc2[nH]1)c1ccc2ccccc2c1C#N" in terms of pIC50 is 8.76

The compound "Cc1cc(N)nc2cc(CNC(=O)c3ccncn3)cnc12" showed pIC50 equal to 4.66

According to the records, this compound "Cn1ncc(N2CCc3cc(F)c(N)nc3C2)c1-c1ccccc1C#N" displays pIC50 of 4.10

What the record says about "Cc1cc(N)nc2cc(CNC(=O)c3cc(O)ncn3)cnc12" : pIC50 is 4.22

Data point: "Cc1cc2[nH]c(CN3C(=O)c4ccccc4C3=O)cc2nc1N" ; pIC50 = 7.92

The measured pIC50 associated with "CC(=O)N(Cc1cnc2c(C)cc(N)nc2c1)c1ccc2ccccc2c1C#N" reads 7.69

The compound listed as Cc1cc(N)nc2cc(C(C#N)N3C(=O)c4ccccc4C3=O)cnc12 (centres unmarked) has a reported pIC50 of 5.62

Consider "Cc1cc2[nH]c(-n3cncn3)cc2nc1N" . Its measured pIC50 is 3.75

Recorded result, "Nc1ccc2[nH]c(NC(=O)c3ccccc3)cc2n1" , pIC50: 4.01

Form field pIC50, entry "Nc1nc2cc(CNC(=O)c3ccncn3)[nH]c2cc1Br" : 6.44

pIC50 recorded for this compound, Cc1cc(N)nc2cc(CNC(=O)c3ccccc3)cnc12 [Example 8-1] , is 6.38
